Please find below log10 of IC50 measurements for ROCK2 (Homo sapiens), combined from several publications.
Short version: log10 scale, IC50, nM.

Before answering, review these 2 worked examples.
1) COCn1c(C(=O)N2CC(F)(F)C2)cc2ccc(-c3nccc(Nc4ccc(-c5cn[nH]c5)cc4)n3)cc21
2.30
2) CC(O)c1cc(C(=O)NC(C)c2c(F)cccc2F)ccc1-c1cn[nH]c1 (stereo not drawn)
1.44

Turning now to a further compound:
Give the reported log10 of IC50 for COc1cc(N2CCC3(CCN(C(=O)c4cc5ncc(Br)cn5n4)CC3)C2=O)ccc1-c1cn[nH]c1 (system: ROCK2 (Homo sapiens)).
Sequence (O75116 whole entry, species assumed): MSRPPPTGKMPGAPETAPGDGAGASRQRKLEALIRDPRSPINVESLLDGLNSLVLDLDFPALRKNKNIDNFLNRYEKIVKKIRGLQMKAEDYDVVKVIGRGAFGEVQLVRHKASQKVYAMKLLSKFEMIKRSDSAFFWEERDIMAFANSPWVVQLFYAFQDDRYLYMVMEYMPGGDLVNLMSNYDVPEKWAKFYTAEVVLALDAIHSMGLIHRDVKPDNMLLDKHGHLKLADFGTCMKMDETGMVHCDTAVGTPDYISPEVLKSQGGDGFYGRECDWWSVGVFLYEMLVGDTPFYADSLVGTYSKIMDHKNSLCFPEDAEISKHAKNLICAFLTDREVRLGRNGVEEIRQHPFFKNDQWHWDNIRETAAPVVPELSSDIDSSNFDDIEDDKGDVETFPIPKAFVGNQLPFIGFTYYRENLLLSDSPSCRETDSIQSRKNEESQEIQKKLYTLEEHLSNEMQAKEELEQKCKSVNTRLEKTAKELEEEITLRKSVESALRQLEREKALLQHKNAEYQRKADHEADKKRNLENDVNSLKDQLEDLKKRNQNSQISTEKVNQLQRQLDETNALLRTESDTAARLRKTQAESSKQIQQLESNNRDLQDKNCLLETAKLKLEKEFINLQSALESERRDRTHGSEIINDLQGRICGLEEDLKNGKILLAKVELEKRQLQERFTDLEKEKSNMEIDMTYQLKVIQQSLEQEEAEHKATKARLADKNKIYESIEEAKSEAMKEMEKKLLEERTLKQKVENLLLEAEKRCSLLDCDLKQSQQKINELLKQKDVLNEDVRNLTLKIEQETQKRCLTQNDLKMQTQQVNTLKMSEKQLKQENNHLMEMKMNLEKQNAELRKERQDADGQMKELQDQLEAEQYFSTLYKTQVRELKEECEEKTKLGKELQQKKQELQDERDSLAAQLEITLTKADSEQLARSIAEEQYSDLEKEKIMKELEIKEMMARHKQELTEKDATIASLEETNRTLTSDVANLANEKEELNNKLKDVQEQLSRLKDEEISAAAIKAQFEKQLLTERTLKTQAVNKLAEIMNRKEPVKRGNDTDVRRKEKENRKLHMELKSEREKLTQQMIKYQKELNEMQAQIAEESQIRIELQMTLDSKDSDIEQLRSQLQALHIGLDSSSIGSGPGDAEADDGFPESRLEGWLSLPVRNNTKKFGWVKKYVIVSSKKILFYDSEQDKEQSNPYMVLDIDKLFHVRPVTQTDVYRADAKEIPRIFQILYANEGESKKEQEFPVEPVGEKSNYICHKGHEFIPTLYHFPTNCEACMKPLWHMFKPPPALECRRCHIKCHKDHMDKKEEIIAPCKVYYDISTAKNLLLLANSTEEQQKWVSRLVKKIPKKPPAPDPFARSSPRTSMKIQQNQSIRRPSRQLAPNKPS
0.70
